ASSAY_ENDPOINT: IC50

Query `COc1cccc(Br)c1C(=O)N[C@H]1CCC[C@@H]1Nc1cnc(C(F)(F)F)cn1` on Orexin receptor type 2 (Homo sapiens); IC50 returned: > 10 µM

For the compound `Cc1ccc(-n2nccn2)c(C(=O)N[C@H]2CCC[C@@H]2Nc2ccc(Cl)cn2)c1` , the measured IC50 on Orexin receptor type 2 (Homo sapiens) was > 10 µM

Noted IC50 for `O=C(N[C@H]1CCC[C@@H]1Nc1ccc(OC(F)(F)F)cn1)c1cc(Cl)ccc1-n1nccn1` , tested on Orexin receptor type 2 (Homo sapiens): > 10 µM
